Reference source for all entries: ChEMBL document CHEMBL2218924

- assayed_system: Vascular endothelial growth factor receptor 3 (Homo sapiens)
- test_parameters: at 10 µM
// reported residual activity for each item listed
Answer in %, number only, no unit symbol.

Please review the following examples before continuing.
{"compound": "N#C/C(=C1/Nc2ccccc2S1)c1ccnc(NCCc2cccnc2)n1", "observable": "residual activity", "observed": 22}
{"compound": "N#Cc1c(NC(=O)c2cccc3ccccc23)sc2c1CCCC2", "observable": "residual activity", "observed": 86}
{"compound": "Cc1cc(C)c(/C=C2\\C(=O)Nc3ccccc32)[nH]1", "observable": "residual activity", "observed": 0}
{"compound": "O=S(=O)(NCCNC/C=C/c1ccc(Br)cc1)c1cccc2cnccc12", "observable": "residual activity", "observed": 26}
{"compound": "O=c1cc(N2CCNCC2)oc2c(-c3ccccc3)cccc12", "observable": "residual activity", "observed": 90}

Tell us which residual activity value is on record for `CC(C)(C)c1nc2c3ccc(F)cc3c3c(=O)[nH]ccc3c2[nH]1`
16

----------
- assayed_system: Ribosomal protein S6 kinase alpha-3 (Homo sapiens)
- test_parameters: at 1 µM
Decide using residual activity alone. Strictly below 60%: Fulfilled. Equal to or above 60%: Not fulfilled.

Would you please look over these solved cases?
{"smiles_string": "Nc1ncnc2[nH]nc(Nc3ccc(F)cc3)c12", "assayed_system": "Ribosomal protein S6 kinase alpha-3 (Homo sapiens)", "class_name": "Fulfilled"}
{"smiles_string": "CCCCc1c(-c2ccc(O)cc2)[nH]c2nccnc12", "assayed_system": "Ribosomal protein S6 kinase alpha-3 (Homo sapiens)", "class_name": "Fulfilled"}
{"smiles_string": "O=c1cc(N2CCOCC2)oc2c(-c3ccccc3)cccc12", "assayed_system": "Ribosomal protein S6 kinase alpha-3 (Homo sapiens)", "class_name": "Not fulfilled"}
{"smiles_string": "COc1cc2nccc(Oc3ccc(NC(=S)NC(=O)c4ccccc4C)cc3)c2cc1OC", "assayed_system": "Ribosomal protein S6 kinase alpha-3 (Homo sapiens)", "class_name": "Not fulfilled"}

Problem: For the compound `COc1ccc(COc2ccc(Cc3cnc(N)nc3N)cc2OC)cc1` , is residual activity under 60%?
Not fulfilled

Dear colleague, could you confirm whether residual activity of `c1ccc(-c2cnc(Nc3ccc(OCCN4CCCC4)cc3)s2)cc1` falls below 60%? Thanks.
Fulfilled

----------
- assayed_system: Insulin receptor (Homo sapiens) (UniProt P06213)
- Sequence (P06213 28-758 limits assumed): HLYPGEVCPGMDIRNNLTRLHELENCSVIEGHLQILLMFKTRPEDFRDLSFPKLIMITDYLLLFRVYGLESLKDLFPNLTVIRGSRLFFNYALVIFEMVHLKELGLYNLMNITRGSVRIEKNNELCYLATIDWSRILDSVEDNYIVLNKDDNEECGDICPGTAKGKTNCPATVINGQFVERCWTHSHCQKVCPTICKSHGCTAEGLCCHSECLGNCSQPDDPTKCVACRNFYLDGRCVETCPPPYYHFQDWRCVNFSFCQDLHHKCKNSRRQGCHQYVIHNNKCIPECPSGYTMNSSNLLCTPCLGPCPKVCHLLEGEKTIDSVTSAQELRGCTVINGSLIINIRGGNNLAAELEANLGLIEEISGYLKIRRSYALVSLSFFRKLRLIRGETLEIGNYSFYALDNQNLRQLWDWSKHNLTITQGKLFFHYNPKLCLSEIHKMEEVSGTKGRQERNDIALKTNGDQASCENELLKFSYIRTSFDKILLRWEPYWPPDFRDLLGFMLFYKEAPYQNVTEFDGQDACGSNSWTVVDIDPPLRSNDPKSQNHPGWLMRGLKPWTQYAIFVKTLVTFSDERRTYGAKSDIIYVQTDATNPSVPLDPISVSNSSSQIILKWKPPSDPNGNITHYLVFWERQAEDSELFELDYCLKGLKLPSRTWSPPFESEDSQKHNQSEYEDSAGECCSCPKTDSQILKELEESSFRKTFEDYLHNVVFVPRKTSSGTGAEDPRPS
- Sequence (P06213 763-1382 limits assumed): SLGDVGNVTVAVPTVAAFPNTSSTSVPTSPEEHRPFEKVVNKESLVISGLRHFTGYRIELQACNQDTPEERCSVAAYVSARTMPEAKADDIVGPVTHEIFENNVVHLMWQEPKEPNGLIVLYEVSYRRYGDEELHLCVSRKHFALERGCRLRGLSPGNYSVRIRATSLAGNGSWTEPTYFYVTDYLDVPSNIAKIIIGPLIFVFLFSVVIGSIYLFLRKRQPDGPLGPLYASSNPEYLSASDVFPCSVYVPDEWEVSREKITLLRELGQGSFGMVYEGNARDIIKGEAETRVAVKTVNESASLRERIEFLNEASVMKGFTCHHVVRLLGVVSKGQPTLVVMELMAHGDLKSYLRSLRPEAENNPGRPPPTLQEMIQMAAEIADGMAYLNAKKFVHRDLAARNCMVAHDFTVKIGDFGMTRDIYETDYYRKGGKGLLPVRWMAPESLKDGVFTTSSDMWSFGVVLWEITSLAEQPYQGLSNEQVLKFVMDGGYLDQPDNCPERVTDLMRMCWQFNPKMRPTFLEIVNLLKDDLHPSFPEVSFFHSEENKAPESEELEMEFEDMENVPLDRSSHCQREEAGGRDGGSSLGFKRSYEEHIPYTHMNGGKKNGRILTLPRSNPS
- test_parameters: at 1 µM
observable: residual activity (%)
Express it in %; write the number only.

{"compound": "N#C/C(=C1/Nc2ccccc2S1)c1ccnc(NCCc2cccnc2)n1", "assayed_system": "Insulin receptor (Homo sapiens) (UniProt P06213)", "observed": 98}

For the compound `O=c1cc(N2CCOCC2)oc2c1ccc1ccccc12` , give its reported residual activity.
103

Write down residual activity measured for item O=C(NC(NC(=S)Nc1ccc(F)c([N+](=O)[O-])c1)C(Cl)(Cl)Cl)C(c1ccccc1)c1ccccc1 (stereo not drawn)
98

----------
- assayed_system: Dual specificity mitogen-activated protein kinase kinase 6 (Homo sapiens) (UniProt P52564)
- Sequence (whole entry): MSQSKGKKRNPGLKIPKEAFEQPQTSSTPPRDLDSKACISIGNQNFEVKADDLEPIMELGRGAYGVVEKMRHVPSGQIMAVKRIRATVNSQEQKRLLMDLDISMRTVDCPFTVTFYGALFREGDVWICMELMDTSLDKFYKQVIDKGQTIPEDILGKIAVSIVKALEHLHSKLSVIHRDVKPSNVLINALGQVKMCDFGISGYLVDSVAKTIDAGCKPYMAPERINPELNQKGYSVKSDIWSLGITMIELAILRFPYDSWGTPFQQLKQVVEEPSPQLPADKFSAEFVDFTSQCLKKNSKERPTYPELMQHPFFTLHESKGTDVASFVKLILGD
- test_parameters: at 1 µM
Is residual activity at least 80%? Then YES. If not, NO.

Answered examples (5):
{"compound": "CCCCc1c(-c2ccc(OC)cc2)[nH]c2nccnc12", "class_name": "YES"}
{"compound": "O=C1Cc2c([nH]c3ccc(Br)cc23)-c2ccccc2N1", "class_name": "YES"}
{"compound": "O=C(NC(NC(=S)Nc1ccc(F)c([N+](=O)[O-])c1)C(Cl)(Cl)Cl)C(c1ccccc1)c1ccccc1 (configuration not stated)", "class_name": "YES"}
{"compound": "O=C(c1ccccc1)c1ccc(N2CCOCC2)cc1O", "class_name": "YES"}
{"compound": "N#Cc1c(NC(=O)c2cccc3ccccc23)sc2c1CCCC2", "class_name": "YES"}

Record `CCCCc1c(-c2ccc(O)cc2)[nH]c2nccnc12` ; criterion: residual activity no lower than 80%. Met?
YES

Assess whether reported residual activity for `CC(C)(C)n1nc(Cc2cccc3ccccc23)c2c(N)ncnc21` sits at 80% or higher.
NO

Check the entry `COc1ccc(-c2cnc3c(-c4ccsc4)cnn3c2)cc1` : does residual activity equal or exceed 80%?
NO

Assess whether reported residual activity for `O=C(O)/C=C/c1cc(Br)c(Br)c(Br)c1Br` sits at 80% or higher.
YES

Confirm if residual activity reported for the compound `Cn1c2ccccc2c2c3c(c4c5ccccc5n(CCC#N)c4c21)CNC3=O` is 80% or above.
NO

----------
- assayed_system: Activated CDC42 kinase 1 (Homo sapiens) (UniProt Q07912)
- Sequence (Q07912 whole entry, looked up): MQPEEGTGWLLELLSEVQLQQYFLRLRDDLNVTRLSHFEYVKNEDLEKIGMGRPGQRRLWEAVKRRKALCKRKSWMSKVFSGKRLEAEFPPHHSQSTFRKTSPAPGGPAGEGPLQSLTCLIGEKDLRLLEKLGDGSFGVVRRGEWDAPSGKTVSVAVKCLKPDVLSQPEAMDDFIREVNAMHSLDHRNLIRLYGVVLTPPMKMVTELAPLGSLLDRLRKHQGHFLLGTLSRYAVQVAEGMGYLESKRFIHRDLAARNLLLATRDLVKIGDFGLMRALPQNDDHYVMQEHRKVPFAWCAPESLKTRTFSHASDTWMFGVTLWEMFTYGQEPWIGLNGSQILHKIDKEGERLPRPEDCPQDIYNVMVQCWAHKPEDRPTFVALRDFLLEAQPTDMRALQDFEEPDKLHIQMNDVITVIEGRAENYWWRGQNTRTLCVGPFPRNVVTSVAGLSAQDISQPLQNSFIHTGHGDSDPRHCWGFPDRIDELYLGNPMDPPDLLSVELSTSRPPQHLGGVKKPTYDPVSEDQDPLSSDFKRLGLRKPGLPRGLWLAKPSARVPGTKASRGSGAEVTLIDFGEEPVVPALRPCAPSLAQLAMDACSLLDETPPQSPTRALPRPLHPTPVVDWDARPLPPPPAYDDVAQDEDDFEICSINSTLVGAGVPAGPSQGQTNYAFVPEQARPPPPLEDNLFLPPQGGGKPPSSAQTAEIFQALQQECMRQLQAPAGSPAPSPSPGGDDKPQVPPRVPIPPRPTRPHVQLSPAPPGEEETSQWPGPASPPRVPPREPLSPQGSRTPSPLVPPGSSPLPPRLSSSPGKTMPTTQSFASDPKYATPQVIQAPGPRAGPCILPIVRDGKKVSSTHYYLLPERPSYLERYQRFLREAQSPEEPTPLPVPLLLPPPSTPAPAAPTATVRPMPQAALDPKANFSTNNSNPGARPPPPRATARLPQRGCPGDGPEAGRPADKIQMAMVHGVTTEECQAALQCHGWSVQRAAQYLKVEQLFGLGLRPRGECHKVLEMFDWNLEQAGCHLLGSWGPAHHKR
- test_parameters: at 10 µM
Items are presented alongside their recorded residual activity.
Numeric answer only, unit % assumed.

{"compound": "O=C(NC(NC(=S)Nc1ccc(F)c([N+](=O)[O-])c1)C(Cl)(Cl)Cl)C(c1ccccc1)c1ccccc1 (configuration not stated)", "endpoint_unit": "%", "residual activity": 78}
{"compound": "NC(=O)c1ccc(-c2nc(-c3ccc4c(c3)OCCO4)c(-c3ccccn3)[nH]2)cc1", "endpoint_unit": "%", "residual activity": 68}
{"compound": "O=c1cc(N2CCOCC2)oc2c(-c3ccccc3)cccc12", "endpoint_unit": "%", "residual activity": 58}

Dear colleague, please send me the reported residual activity for `CCCCc1c(-c2ccc(OC)cc2)[nH]c2nccnc12` when you can.
5

State its residual activity: `c1ccc(-c2cnc(Nc3ccc(OCCN4CCCC4)cc3)s2)cc1`
16

Specify reported residual activity for the compound shown: `O=c1cc(N2CCOCC2)oc2c1ccc1ccccc12`
77

----------
Examples of compounds with documented residual activity follow.
- assayed_system: Serine/threonine-protein kinase PLK3 (Homo sapiens) (UniProt Q9H4B4)
- Sequence (Q9H4B4 whole entry, looked up): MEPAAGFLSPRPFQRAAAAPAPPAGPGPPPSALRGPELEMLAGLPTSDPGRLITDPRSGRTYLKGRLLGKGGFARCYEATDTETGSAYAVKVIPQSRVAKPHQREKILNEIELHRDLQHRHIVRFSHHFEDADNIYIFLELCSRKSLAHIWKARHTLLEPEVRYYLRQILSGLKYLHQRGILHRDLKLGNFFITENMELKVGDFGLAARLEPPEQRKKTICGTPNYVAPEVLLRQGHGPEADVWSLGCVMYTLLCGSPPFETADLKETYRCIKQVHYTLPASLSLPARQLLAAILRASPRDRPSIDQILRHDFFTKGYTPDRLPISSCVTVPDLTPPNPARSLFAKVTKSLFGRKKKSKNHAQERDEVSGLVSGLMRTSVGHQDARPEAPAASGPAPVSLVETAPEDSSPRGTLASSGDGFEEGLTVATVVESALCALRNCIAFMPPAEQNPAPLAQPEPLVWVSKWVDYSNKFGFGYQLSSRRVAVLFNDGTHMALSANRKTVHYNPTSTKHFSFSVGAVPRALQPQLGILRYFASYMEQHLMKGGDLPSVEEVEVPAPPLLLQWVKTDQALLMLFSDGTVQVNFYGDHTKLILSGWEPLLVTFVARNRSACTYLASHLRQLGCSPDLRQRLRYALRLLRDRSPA
- test_parameters: at 1 µM
- Description: Millipore: Percentage of residual kinase activity of PLK3 at 1uM relative to control. Control inhibitor: Wortmannin at 100.0uM. Buffer: 8 mM MOPS pH 7.0, 0.2 mM EDTA
Entry rule: numbers only, all in %.

Worked cases, answers included:
{"smiles_string": "NC(=O)Nc1sc(-c2ccc(F)cc2)cc1C(N)=O", "residual activity (%)": 88}
{"smiles_string": "COc1cc2ncnc(Nc3cccc(Cl)c3)c2cc1OC", "residual activity (%)": 83}

// next entry
Find the measured residual activity of `CCCC(=O)Oc1ccc2[nH]c(C(=O)c3cc4ccccc4[nH]3)cc2c1` and report it.
93

----------
- assayed_system: Serine/threonine-protein kinase BRSK2 (Homo sapiens)
- Sequence (whole entry): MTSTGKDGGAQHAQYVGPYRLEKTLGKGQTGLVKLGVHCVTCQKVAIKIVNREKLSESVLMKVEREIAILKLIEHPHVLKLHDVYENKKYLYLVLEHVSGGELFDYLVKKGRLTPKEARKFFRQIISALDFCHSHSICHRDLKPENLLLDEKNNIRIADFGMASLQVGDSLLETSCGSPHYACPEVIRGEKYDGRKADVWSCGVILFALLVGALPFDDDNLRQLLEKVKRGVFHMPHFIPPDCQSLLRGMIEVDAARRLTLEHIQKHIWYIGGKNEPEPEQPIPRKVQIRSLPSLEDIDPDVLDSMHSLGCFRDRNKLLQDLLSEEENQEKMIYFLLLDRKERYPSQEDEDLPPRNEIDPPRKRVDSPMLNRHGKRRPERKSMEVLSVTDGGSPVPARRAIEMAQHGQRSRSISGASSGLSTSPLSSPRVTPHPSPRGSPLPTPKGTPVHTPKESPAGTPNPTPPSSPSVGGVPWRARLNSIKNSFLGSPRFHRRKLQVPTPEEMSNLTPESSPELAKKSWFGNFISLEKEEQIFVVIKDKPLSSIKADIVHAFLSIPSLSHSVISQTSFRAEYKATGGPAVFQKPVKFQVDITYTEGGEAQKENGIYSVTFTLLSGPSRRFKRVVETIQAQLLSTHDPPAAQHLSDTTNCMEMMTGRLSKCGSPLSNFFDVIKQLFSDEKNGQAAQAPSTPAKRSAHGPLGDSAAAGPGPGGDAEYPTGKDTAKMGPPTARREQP
- test_parameters: at 1 µM
Listing of recorded residual activity by entry.

{"smiles_string": "Cn1c2ccccc2c2c3c(c4c5ccccc5n(CCC#N)c4c21)CNC3=O", "observed": "7%"}
{"smiles_string": "COc1cc2nccc(Oc3ccc(NC(=S)NC(=O)c4ccccc4C)cc3)c2cc1OC", "observed": "89%"}
{"smiles_string": "O=C(c1cc2cc(O)ccc2[nH]1)c1cc2cc(O)ccc2[nH]1", "observed": "37%"}
{"smiles_string": "NC(=O)Nc1sc(-c2ccc(F)cc2)cc1C(N)=O", "observed": "83%"}
{"smiles_string": "O=c1cc(N2CCNCC2)oc2c(-c3ccccc3)cccc12", "observed": "98%"}
{"smiles_string": "O=c1cc(N2CCOCC2)oc2c1ccc1ccccc12", "observed": "102%"}
{"smiles_string": "O=C1C(Cl)=C(N2C(=O)CCC2=O)C(=O)c2ccccc21", "observed": "118%"}
{"smiles_string": "Nc1ncnc2c1cnn2-c1ccccc1", "observed": "97%"}

Given the molecule `O=C1NC(=O)C(c2c[nH]c3ccccc23)=C1c1c[nH]c2ccccc12` , write its reported residual activity.
73%
